Compiled pKi measurements on Coagulation factor IX (Homo sapiens, UniProt P00740) taken from the literature.
pKi: −log10 of the molar value.
Decision: pKi compared against 6; not below it gives Criterion met, below it gives Criterion not met.

[[record]]
compound = "COc1ccc(-n2nc(C(N)=O)cc2C(=O)Cc2ccc(-n3ccccc3=O)cc2F)cc1"
answerlabel = "Criterion not met"

[[record]]
compound = "Cc1cc2nc([C@@H](CNC(=O)c3c(F)cc(-n4cnnc4)cc3Cl)c3ccccc3)[nH]c2cc1C"
answerlabel = "Criterion met"

[[record]]
compound = "COC(=O)Nc1ccc(-c2cc([C@H](Cc3ccccc3)NC(=O)/C=C/c3cc(Cl)ccc3-n3cnnn3)nnc2C)cc1"
answerlabel = "Criterion not met"

[[record]]
compound = "Cn1cc(C(Cc2ccccc2)C(=O)Nc2ccc(-n3cnc4ccccc43)cc2F)c2cc(C(=N)N)ccc21 (configuration not stated)"
answerlabel = "Criterion met"

[[record]]
compound = "N=C(N)c1cccc(-n2nc(C(F)(F)F)cc2C(=O)Nc2ccc(-n3cnc4cc([N+](=O)[O-])ccc43)cc2F)c1"
answerlabel = "Criterion met"

[[record]]
compound = "Cc1ncn(-c2cc(Cl)c(C(=O)NC[C@@H](c3cccc(F)c3)c3ccc4[nH]c(C)nc4c3)c(Cl)c2)n1"
answerlabel = "Criterion met"

[[record]]
compound = "COC(=O)[C@H]1CCCCC1NNC(=O)C(Cc1ccccc1)c1csc2ccc(C(=N)N)cc12 (some centres not stated)"
answerlabel = "Criterion met"

[[record]]
compound = "CCS(=O)(=O)c1ccc2cc1CNC(=O)[C@H](Nc1ccc(C(=N)N)cc1)c1ccc(cc1)CCCC(=O)N2"
answerlabel = "Criterion not met"

[[record]]
compound = "N=C(N)c1cccc(-n2nc(Cn3ccnn3)cc2C(=O)Nc2ccc(-n3cnc4ccccc43)cc2)c1"
answerlabel = "Criterion met"

[[record]]
compound = "N=C(N)c1cccc(-n2nc(C(F)(F)F)cc2C(=O)Nc2ccc(-n3cnc4cccnc43)cc2F)c1"
answerlabel = "Criterion met"


// inclusive: pKi at least 6? input: CCOC(=O)[C@@H]1CCCCC1NC(=O)C(Cc1ccccc1)C1=CS(=O)(=O)c2ccc(C(=N)N)cc21 (some centres not stated)
Criterion not met

Hi team, for N#Cc1ccc(NC(=O)C(Cc2ccccc2)c2csc3ccc(C(=N)N)cc23)cc1 (configuration not stated) , is the recorded pKi at or above 6?
Criterion not met

hey, is pKi for this one >= 6? N=C(N)c1ccc2[nH]cc(CC(=O)Nc3ccc(-c4ccccc4S(N)(=O)=O)cc3)c2c1
Criterion not met

Check if pKi >= 6 (inclusive). Item: N=C(N)c1ccc2scc(C(Cc3ccccc3)C(=O)Nc3ccc(-n4cnc5ccccc54)cc3)c2c1.O=C(O)C(F)(F)F (configuration not stated)
Criterion met

Does pKi meet or surpass 6 for COc1ccc(-n2nc(C(N)=O)c3c2C(=O)N(c2ccc(C(C)(C)CO)cc2)CC3)cc1 ?
Criterion not met

Could you please find out whether N=C(N)c1ccc(NC(=O)c2[nH]nc(-c3ccccc3)c2O)cc1 has pKi that meets 6 or exceeds it?
Criterion not met

----------
Multi-source literature compilation: Ki on Coagulation factor IX (Homo sapiens, UniProt P00740).
Numbers only; they are read as nM.

Example cases with answers are listed next.
[[record]]
compound = "Cc1ncn(-c2cc(Cl)c(C(=O)NC[C@@H](c3cccc(F)c3)c3ccc4c(C)ccc(F)c4n3)c(Cl)c2)n1"
assayedtarget = "Coagulation factor IX (Homo sapiens, UniProt P00740)"
val = 10.4

[[record]]
compound = "N=C(N)c1cccc(-n2nc(C(F)(F)F)cc2C(=O)Nc2ccc(-n3ccnc3)cc2)c1"
assayedtarget = "Coagulation factor IX (Homo sapiens, UniProt P00740)"
val = 72

[[record]]
compound = "COc1cc(-n2cnnc2)cc(Cl)c1C(=O)NC[C@@H](c1ccccc1)c1nc2cc(C)c(C)cc2[nH]1"
assayedtarget = "Coagulation factor IX (Homo sapiens, UniProt P00740)"
val = 14.8

[[record]]
compound = "N=C(N)c1ccc2[nH]cc(C(Cc3ccccc3)C(=O)NCc3ccc(-n4cnc5ccccc54)cc3)c2c1 (configuration not stated)"
assayedtarget = "Coagulation factor IX (Homo sapiens, UniProt P00740)"
val = 310


Lab book: Ki of Cc1cc2nc(CCNC(=O)c3ccc(-n4ccnc4)cc3Cl)[nH]c2cc1C noted as 5580

Lab book: Ki of N=C(N)c1ccc2[nH]cc(C(Cc3ccccc3)C(=O)Nc3ccc(-n4cnc5ccccc54)cc3F)c2c1 (racemic) noted as 63

response.value for N=C(N)c1cccc(-n2nc(C(F)(F)F)cc2C(=O)Nc2ccc(N3C(=O)N=C4C=CC=CC43)cc2)c1 (configuration not stated) (field: Ki) = 190

Recorded result, N=C(N)c1ccc2[nH]cc(CC(Cc3ccccc3)C(=O)Nc3ccc(-n4cnc5ccccc54)cc3)c2c1 (configuration not stated) , Ki: 130

Record summary for Cc1cc2nc(C[C@H](C)NC(=O)c3ccc(-n4cnnc4)cc3Cl)[nH]c2cc1C : reported Ki = 55400

Record Cc1ncn(-c2cc(Cl)c(C(=O)NC[C@@H](c3cccc(F)c3)c3cc(F)c4[nH]c(C)nc4c3)c(Cl)c2)n1 , field Ki: 10.6

// recorded Ki for N=C(N)c1cccc(-n2nc(C(F)(F)F)cc2C(=O)Nc2ccc(-n3cnc4ccc(Cl)cc43)cc2F)c1 : 5.1

What the record says about Cc1cc2nc([C@@H](CNC(=O)c3ccc(-n4cnnc4)cc3Cl)c3ccccc3F)[nH]c2cc1C : Ki is 19.3

Consider N=C(N)c1cccc(-n2nc(-c3cccnc3)cc2C(=O)Nc2ccc(-n3cnc4cc(Cl)ccc43)cc2)c1 . Its measured Ki is 15

// field: Ki; key: Cc1ccc2c(c1)ncn2-c1ccc(NC(=O)c2cc(C(F)(F)F)nn2-c2cccc(C(=N)N)c2)c(F)c1 ; value = 10

Short answer for N=C(N)c1cccc(-n2nc(C(F)(F)F)cc2C(=O)Nc2ccc(-n3cnc4ccccc43)cc2)c1 : Ki was 11

Briefly, Ki measured for COC(=O)[C@H]1CCCCC1NNC(=O)[C@H](Cc1ccccc1)c1csc2ccc(C(=N)N)cc12 (some centres not stated) : 280

# compound N=C(N)c1ccc2[nH]cc([C@H](Cc3ccccc3)C(=O)Nc3ccc(-n4cnc5ccccc54)cc3F)c2c1 ; its Ki = 820

Ki in this record for CCOC(=O)[C@@H]1CCCCC1NC(=O)[C@@H](Cc1ccccc1)c1cccc2ccc(C(=N)N)cc12 (some centres not stated) : 240

The compound listed as Cc1cc2nc([C@@H](CNC(=O)c3ccc(-n4cnnc4)cc3Cl)c3cccnc3)[nH]c2cc1C has a reported Ki of 15.4

Consider N=C(N)c1ccc2scc(C(Cc3ccccc3)C(=O)Nc3ccc(-n4cnc(-c5ccccc5)c4)cc3)c2c1.O=C(O)C(F)(F)F (configuration not stated) . Its measured Ki is 390
